Let's go through some recorded AC50 values for human CYP2C9 (Homo sapiens) together.
measurement-type: AC50 (µM)

{"columns": ["molecule", "unit-text", "recorded-result"],
 "data": [
  ["CC(C)COC(=O)C=Cc1ccccc1 [Isobutyl 3-phenylacrylate]", "µM", 44],
  ["O=C(OCCOCCOCCOC(=O)c1ccccc1)c1ccccc1 [Triethylene glycol dibenzoate]", "µM", 2.75],
  ["O=C(c1ccccc1)c1cccc(O)c1 [3-Hydroxybenzophenone]", "µM", 3.99],
  ["Cl.ClCCCN1CCN(c2cccc(Cl)c2)CC1", "µM", 16.8],
  ["CCOC(=O)C1=NOC(c2ccccc2)(c2ccccc2)C1 [Isoxadifen-ethyl]", "µM", 8.36]
]}

====

Target: Photinus pyralis (firefly) luciferase (Photinus pyralis, UniProt P08659)
Sequence (P08659 whole entry): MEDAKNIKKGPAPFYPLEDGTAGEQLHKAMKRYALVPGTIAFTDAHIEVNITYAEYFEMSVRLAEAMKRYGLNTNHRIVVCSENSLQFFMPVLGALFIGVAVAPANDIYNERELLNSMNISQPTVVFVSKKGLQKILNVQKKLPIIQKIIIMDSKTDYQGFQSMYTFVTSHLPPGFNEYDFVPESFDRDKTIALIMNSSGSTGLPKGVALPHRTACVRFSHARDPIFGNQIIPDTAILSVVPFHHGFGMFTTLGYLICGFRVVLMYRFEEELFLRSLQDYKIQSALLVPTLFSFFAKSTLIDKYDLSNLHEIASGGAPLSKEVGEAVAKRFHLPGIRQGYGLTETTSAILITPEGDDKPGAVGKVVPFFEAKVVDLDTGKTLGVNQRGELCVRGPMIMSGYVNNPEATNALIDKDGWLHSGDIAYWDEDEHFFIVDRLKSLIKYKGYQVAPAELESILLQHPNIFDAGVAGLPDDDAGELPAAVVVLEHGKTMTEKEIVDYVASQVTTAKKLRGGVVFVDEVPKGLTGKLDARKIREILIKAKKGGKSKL
Assay: biochemical
Format: biochemical
Structures can show the parent of a compound that is named as a salt.
measurement-type: Luciferase IC50

{"columns": ["compound", "measurement-type", "recorded-result"],
 "data": [
  ["COCC(=O)O[C@]1(CCN(C)CCCc2nc3ccccc3[nH]2)CCc2cc(F)ccc2[C@@H]1C(C)C [Mibefradil dihydrochloride]", "Luciferase IC50", "Inactive"],
  ["CCOC(=O)C(SP(=S)(OC)OC)c1ccccc1 (stereo not shown) [Phenthoate]", "Luciferase IC50", "Inactive"],
  ["C[C@@H](O[C@H]1OCCN(Cc2n[nH]c(=O)[nH]2)[C@H]1c1ccc(F)cc1)c1cc(C(F)(F)F)cc(C(F)(F)F)c1 [Aprepitant]", "Luciferase IC50", "Inactive"],
  ["CC[N+]1(C)CCCC1.[I-] [1-Ethyl-1-methylpyrrolidinium iodide]", "Luciferase IC50", "Inactive"],
  ["Cc1ccc(N(CC2=NCCN2)c2cccc(O)c2)cc1 [Phentolamine mesilate]", "Luciferase IC50", "Inactive"],
  ["CCCC[N+](CCCC)(CCCC)CCCC [Tetrabutylammonium bromide]", "Luciferase IC50", "Inactive"],
  ["ClC1=C(Cl)C2(Cl)C3C4CC(C5OC45)C3C1(Cl)C2(Cl)Cl (stereo not shown)", "Luciferase IC50", "Inactive"],
  ["CCCC[P+](C)(CCCC)CCCC.COS(=O)(=O)[O-] [Tributylmethylphosphonium methyl sulfate]", "Luciferase IC50", "Inactive"],
  ["Cl.Cl.c1ccc(CNCCNCc2ccccc2)cc1", "Luciferase IC50", "Inactive"],
  ["CCOP(=S)(OCC)O/N=C(\\C#N)c1ccccc1", "Luciferase IC50", "Inactive"],
  ["CN1CCCN(C(c2ccccc2)c2ccc(Cl)cc2)CC1 (stereo not shown)", "Luciferase IC50", "Inactive"],
  ["CCC(CN)=C(c1ccccc1)c1ccccc1.Cl [Etifelmine hydrochloride]", "Luciferase IC50", "Inactive"],
  ["COC1CC(=C(c2cccs2)c2cccs2)C[N+](C)(C)C1 (stereo not shown) [Timepidium bromide]", "Luciferase IC50", "Inactive"],
  ["c1ccc2sc(SN(C3CCCCC3)C3CCCCC3)nc2c1", "Luciferase IC50", "Inactive"],
  ["CN1CCC(N(Cc2ccccc2)c2ccccc2)CC1", "Luciferase IC50", "Inactive"],
  ["N=C(Nc1ccccc1)Nc1ccccc1", "Luciferase IC50", "Inactive"],
  ["CN1CCc2cc(Cl)c(O)cc2[C@H]2c3ccccc3CC[C@@H]21", "Luciferase IC50", "Inactive"],
  ["O=S1OCC2C(CO1)C1(Cl)C(Cl)=C(Cl)C2(Cl)C1(Cl)Cl (stereo not shown) [Endosulfan]", "Luciferase IC50", "Inactive"],
  ["CN(Cc1cc(Br)cc(Br)c1N)C1CCCCC1 [Bromhexine hydrochloride]", "Luciferase IC50", "Inactive"]
]}

====

pIC50: −log10 of the molar value.
Entries with their measured pIC50, system human CYP2C19 (Homo sapiens, UniProt P33261):

{"columns": ["molecule", "target-or-test-system", "pIC50"],
 "data": [
  ["CC[C@H]1C[C@@H]2C[C@H]3c4[nH]c5ccc(OC)cc5c4CCN(C2)[C@@H]13.Cl [Ibogaine hydrochloride]", "human CYP2C19 (Homo sapiens, UniProt P33261)", 4.08],
  ["Nc1nc2ccc([N+](=O)[O-])cc2s1", "human CYP2C19 (Homo sapiens, UniProt P33261)", 4.45],
  ["CCC(OC(C)=O)C(CC(C)NC)(c1ccccc1)c1ccccc1.Cl (stereo not drawn)", "human CYP2C19 (Homo sapiens, UniProt P33261)", 4.66],
  ["COc1ccc(OC)c(N=Nc2c(O)ccc3ccccc23)c1", "human CYP2C19 (Homo sapiens, UniProt P33261)", 5.10],
  ["O=S(=O)(Oc1ccc(Cl)cc1)c1ccccc1", "human CYP2C19 (Homo sapiens, UniProt P33261)", 6.11],
  ["C=CCc1cc(S(=O)(=O)c2ccc(O)c(CC=C)c2)ccc1O", "human CYP2C19 (Homo sapiens, UniProt P33261)", 5.46],
  ["CC(=O)c1ccc2ccc3ccccc3c2c1", "human CYP2C19 (Homo sapiens, UniProt P33261)", 4.65],
  ["O=C(Nc1ccccc1SSc1ccccc1NC(=O)c1ccccc1)c1ccccc1 [2,2'-Dibenzoylaminodiphenyl disulfide]", "human CYP2C19 (Homo sapiens, UniProt P33261)", 5.40],
  ["CC(C)(C)c1cc(CCC(=O)NN)cc(C(C)(C)C)c1O", "human CYP2C19 (Homo sapiens, UniProt P33261)", 5.27]
]}

====

Items are presented alongside their recorded pIC50.
Biological target: Photinus pyralis (firefly) luciferase (Photinus pyralis)
Experiment: biochemical
Type: biochemical
Conditions: read-out: Luciferase IC50 (half-maximal inhibitory concentration)
pIC50: −log10 of the molar value.

{"columns": ["compound", "pIC50"],
 "data": [
  ["Cc1ccc([N+](=O)[O-])[c]2c1[O][Hg]2", 4.90],
  ["CC(=O)/C=C/c1ccc2c(c1)OCO2", 4.39],
  ["CC(=O)[O-].CC(=O)[O-].[Hg+2] [Mercury(II) acetate]", 5.16],
  ["O=S(=O)(O)C(F)(F)C(F)(F)C(F)(F)C(F)(F)C(F)(F)C(F)(F)C(F)(F)C(F)(F)F", 4.15],
  ["Oc1cc2ccccc2c2ccccc12", 4.15],
  ["COc1ccc(OC)c(N=Nc2c(O)ccc3ccccc23)c1", 5.16]
]}

====

Test system human CYP1A2 (Homo sapiens, UniProt P05177), IC50 listed for each of the compounds.
measurement-type: IC50 (µM)

{"columns": ["compound", "recorded-result"],
 "data": [
  ["CCOC(=O)c1ccc(OC(=O)CCCCCN=C(N)N)cc1.CS(=O)(=O)O [Gabexate mesilate]", 20.1],
  ["CCCN(CCC)CCc1c[nH]c2ccccc12.Cl [N,N-Dipropyltryptamine hydrochloride]", 20.8],
  ["COc1ccc(OC)c(N=Nc2c(O)ccc3ccccc23)c1 [C.I. Solvent Red 80]", 0.75],
  ["Cn1ccc2cc3c(cc21)CCN3C(=O)Nc1cccnc1 [SB-206553]", 0.07],
  ["COc1cc2c(cc1OC)C(C(C(=O)N(CCc1ccc(OC)c(OC)c1OC)CCc1ccc(OC)c(OC)c1OC)c1ccccc1)=NCC2.Cl (stereo not drawn) [Pinokalant hydrochloride]", 37.3],
  ["CCNc1nc(Cl)nc(NC(C)(C)C)n1 [Terbutylazine]", 10.8],
  ["Oc1cc2ccccc2c2ccccc12 [9-Phenanthrol]", 0.05],
  ["N#Cc1c(-c2ccc(Cl)cc2)[nH]c(C(F)(F)F)c1Br [Tralopyril]", 0.33],
  ["COC(=O)C1=C(C)NC(C)=C(C(=O)O[C@@H]2CCCN(Cc3ccccc3)C2)[C@@H]1c1cccc([N+](=O)[O-])c1.Cl (racemic) [rac Benidipine hydrochloride]", 25.2]
]}

====

Target: human CYP2C9 (Homo sapiens)
Sequence (P11712 whole entry): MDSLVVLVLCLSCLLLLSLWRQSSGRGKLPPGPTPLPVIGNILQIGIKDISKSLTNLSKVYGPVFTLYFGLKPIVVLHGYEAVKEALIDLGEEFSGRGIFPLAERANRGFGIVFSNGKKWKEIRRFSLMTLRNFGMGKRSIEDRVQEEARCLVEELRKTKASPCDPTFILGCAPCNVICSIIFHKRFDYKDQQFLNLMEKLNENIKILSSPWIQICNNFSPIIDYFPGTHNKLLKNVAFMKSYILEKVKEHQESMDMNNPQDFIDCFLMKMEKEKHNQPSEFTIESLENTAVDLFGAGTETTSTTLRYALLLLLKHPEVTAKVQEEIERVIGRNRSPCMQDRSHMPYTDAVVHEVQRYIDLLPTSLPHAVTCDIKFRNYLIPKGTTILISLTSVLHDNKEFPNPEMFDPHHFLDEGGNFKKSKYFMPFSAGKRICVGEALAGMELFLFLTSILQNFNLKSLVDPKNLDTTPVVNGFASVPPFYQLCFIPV
Assay: biochemical
Settings: CYP2C9 AC50 (half-maximal activity concentration)
Structures can show the parent of a compound that is named as a salt.
Binarize AC50 at 10 µM; below is met, at or above is not met.

{"columns": ["compound", "target-or-test-system", "assigned-class"],
 "data": [
  ["O=[N+]([O-])c1cc(C2CCCCC2)c(O)c([N+](=O)[O-])c1", "human CYP2C9 (Homo sapiens)", "met"],
  ["CC(COc1ccccc1)NC(C)C(O)c1ccc(O)cc1 (stereo not drawn) [Isoxsuprine hydrochloride]", "human CYP2C9 (Homo sapiens)", "not met"],
  ["N#CCCC(Br)(C#N)CBr (stereo not drawn)", "human CYP2C9 (Homo sapiens)", "met"],
  ["CC1(C)C(C=C(Cl)Cl)C1C(=O)OC(C#N)c1ccc(F)c(Oc2ccccc2)c1 (stereo not drawn)", "human CYP2C9 (Homo sapiens)", "met"],
  ["CCOC(=O)C(C)Oc1ccc(Oc2cnc3cc(Cl)ccc3n2)cc1 (stereo not drawn)", "human CYP2C9 (Homo sapiens)", "not met"],
  ["Cc1nc2ccccc2c(=O)n1-c1ccccc1Cl", "human CYP2C9 (Homo sapiens)", "not met"],
  ["Oc1c(Br)cc(Br)cc1Br", "human CYP2C9 (Homo sapiens)", "not met"],
  ["CN(C(=O)C(Cl)Cl)c1ccc(OC(=O)c2ccco2)cc1 [Diloxanide furoate]", "human CYP2C9 (Homo sapiens)", "not met"],
  ["C=C1C[C@H]2[C@@H]3C=C(C)C4=CC(=O)CC[C@]4(C)[C@H]3CC[C@]2(C)[C@@]1(OC(C)=O)C(C)=O [Melengestrol acetate]", "human CYP2C9 (Homo sapiens)", "not met"]
]}
